Experiment: Toxicity in cynomolgous monkey administered daily for 28 days
Set-up: species or system Macaca fascicularis
Conditions: cynomolgus monkey, in vivo; time 28 day
property: NOAEL at 672 h (mg/kg/day)
Write the answer as a number in mg/kg/day, unit excluded.

Quick one: NOAEL at 672 h for N#Cc1cc(-c2ccc(C(=O)O)c(O)c2)c2oc(F)cc2c1 ?
30

====

Assay: Stability in rat liver microsomes assessed as half life at 1 uM measured upto 60 mins in presence of NADPH by LC-MS/MS analysis
Type: ADME, Microsome
property: half-life at 1 µM (h)
Record the value in h, omitting the unit from your answer.

What value of half-life at 1 µM has been reported for the following molecule? N#Cc1cc(-c2ccc(C(=O)O)c(O)c2)c2oc(F)cc2c1
3.38

====

Biological target: Cytochrome P450 2C9 (Homo sapiens, UniProt P11712)
Sequence (P11712 whole entry): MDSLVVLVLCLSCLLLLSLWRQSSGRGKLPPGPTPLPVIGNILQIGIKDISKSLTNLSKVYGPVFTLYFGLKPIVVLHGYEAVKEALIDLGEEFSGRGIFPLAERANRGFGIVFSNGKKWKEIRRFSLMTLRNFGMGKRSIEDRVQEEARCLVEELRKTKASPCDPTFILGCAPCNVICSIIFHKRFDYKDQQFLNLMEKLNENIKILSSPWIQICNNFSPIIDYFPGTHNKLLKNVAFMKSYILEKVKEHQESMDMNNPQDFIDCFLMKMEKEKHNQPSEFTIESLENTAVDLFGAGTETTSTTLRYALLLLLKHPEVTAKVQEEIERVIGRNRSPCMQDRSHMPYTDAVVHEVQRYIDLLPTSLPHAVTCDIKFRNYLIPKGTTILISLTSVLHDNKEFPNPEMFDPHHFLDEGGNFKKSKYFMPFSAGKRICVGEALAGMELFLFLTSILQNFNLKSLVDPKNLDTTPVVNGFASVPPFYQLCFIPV
property: pIC50
pIC50 field: float, defined as -log10 of concentration (mol/L).

Requested read-out pIC50, target or system Cytochrome P450 2C9 (Homo sapiens, UniProt P11712), entry N#Cc1cc(-c2ccc(C(=O)O)c(O)c2)c2oc(F)cc2c1
5.56

====

Test: AUC (0 to t) in female cynomolgous monkey at 30 mg/kg/day for 28 days
Format: ADME, organism-based, Macaca fascicularis
Conditions: cynomolgus monkey, in vivo, time 28 day
property: AUC(0-t) at 672 h (µg·h/mL)
Give the quantity in µg·h/mL, number only.

What value of measured AUC(0-t) at 672 h is listed for N#Cc1cc(-c2ccc(C(=O)O)c(O)c2)c2oc(F)cc2c1 ?
336

====

Item-by-item account of AUC(0-t) at 24 h
Assay: AUC (last) in overnight-fasted Sprague-Dawley rat at 5 mg/kg, po measured upto 24 hrs by LC-MS/MS analysis
Assay type: ADME, organism-based
Conditions: in vivo
Kindly answer with a numeric value in ng·h/mL, unit omitted.

Return reported AUC(0-t) at 24 h; argument: N#Cc1cc(-c2ccc(C(=O)O)c(O)c2)c2occc2c1
44400

Okay, and N#Cc1cc(-c2ccc(C(=O)O)c(O)c2)c2ccsc2c1 ?
2430

====

Assay: Cmax in Cynomolgous monkey at 5 mg/kg, po measured upto 24 hrs by LC-MS/MS analysis
Assay type: ADME, organism-based, Macaca fascicularis
Details: cynomolgus monkey, in vivo
property: Cmax (ng/mL)
I only need the number, in ng/mL, no unit after it.

Returns the measured Cmax for the input compound. Input: N#Cc1cc(-c2ccc(C(=O)O)c(O)c2)c2oc(F)cc2c1
3360

====

Assay: Cmax in Tufted capuchin monkey at 10 mg/kg, po measured for 24 hrs by LC-MS/MS analysis
Format: ADME, organism-based
Details: sapajus apella, in vivo
property: Cmax

Requested field: Cmax. Item: N#Cc1cc(-c2ccc(C(=O)O)c(O)c2)c2oc(F)cc2c1
2470 ng/mL

====

Molecular target: Cytochrome P450 2D6 (Homo sapiens)
Sequence (P10635 whole entry): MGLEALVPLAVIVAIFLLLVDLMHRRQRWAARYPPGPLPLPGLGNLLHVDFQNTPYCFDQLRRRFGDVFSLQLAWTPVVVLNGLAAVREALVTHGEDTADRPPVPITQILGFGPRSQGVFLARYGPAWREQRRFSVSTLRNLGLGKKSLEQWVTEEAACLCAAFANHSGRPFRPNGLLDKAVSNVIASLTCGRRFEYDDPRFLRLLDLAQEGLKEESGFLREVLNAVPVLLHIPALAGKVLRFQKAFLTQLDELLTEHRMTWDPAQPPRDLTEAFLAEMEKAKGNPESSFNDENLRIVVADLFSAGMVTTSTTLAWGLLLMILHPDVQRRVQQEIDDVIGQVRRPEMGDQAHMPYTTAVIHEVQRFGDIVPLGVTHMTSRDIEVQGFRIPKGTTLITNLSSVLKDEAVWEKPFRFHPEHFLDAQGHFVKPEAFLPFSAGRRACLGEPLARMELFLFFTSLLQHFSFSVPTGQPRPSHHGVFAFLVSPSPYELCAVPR
pIC50: −log10 of the molar value.
property: pIC50

Param readout = pIC50; param system = Cytochrome P450 2D6 (Homo sapiens); param query = N#Cc1cc(-c2ccc(C(=O)O)c(O)c2)c2oc(F)cc2c1 ; response: value
< 4.30

====

Experiment: AUC (last) in Beagle dog at 5 mg/kg, po measured upto 24 hrs by LC-MS/MS analysis
Type: ADME, organism-based, Canis lupus familiaris
Conditions: in vivo
property: AUC(0-t) at 24 h (ng·h/mL)
Quick reminder: number only, in ng·h/mL, skip the unit.

Give the measured AUC(0-t) at 24 h of N#Cc1cc(-c2ccc(C(=O)O)c(O)c2)c2oc(F)cc2c1 .
11500
